reported_conditions: in methanol, 298.15 K
measured_quantity: solubility (mole fraction)
Answer as a number with no unit attached.

Recall and state the measured solubility (mole fraction) for COC(=O)CC[C@H](N)C(=O)O .
0.00138

----------
reported_conditions: in acetone, 298.15 K
measured_quantity: solubility (mole fraction)

Recall and state the measured solubility (mole fraction) for COC(=O)CC[C@H](N)C(=O)O .
0.000221

----------
reported_conditions: in n-propanol, 283.15 K
measured_quantity: solubility (mole fraction)
Answer as a number with no unit attached.

Recall and state the measured solubility (mole fraction) for COC(=O)CC[C@H](N)C(=O)O .
1.38e-05

----------
reported_conditions: in isopropanol, 293.15 K
measured_quantity: solubility (mole fraction)
Answer as a number with no unit attached.

Recall and state the measured solubility (mole fraction) for COC(=O)CC[C@H](N)C(=O)O .
0.000124

----------
reported_conditions: in isopropanol, 318.15 K
measured_quantity: solubility (mole fraction)

Recall and state the measured solubility (mole fraction) for COC(=O)CC[C@H](N)C(=O)O .
0.000245

----------
reported_conditions: in methanol, 288.15 K
measured_quantity: solubility (mole fraction)
Answer as a number with no unit attached.

Recall and state the measured solubility (mole fraction) for COC(=O)CC[C@H](N)C(=O)O .
0.00122

----------
reported_conditions: in acetone, 318.15 K
measured_quantity: solubility (mole fraction)
Answer as a number with no unit attached.

Recall and state the measured solubility (mole fraction) for COC(=O)CC[C@H](N)C(=O)O .
0.000516

----------
reported_conditions: in acetone, 293.15 K
measured_quantity: solubility (mole fraction)
Answer as a number with no unit attached.

Recall and state the measured solubility (mole fraction) for COC(=O)CC[C@H](N)C(=O)O .
0.000148

----------
reported_conditions: in methanol, 313.15 K
measured_quantity: solubility (mole fraction)
Answer as a number with no unit attached.

Recall and state the measured solubility (mole fraction) for COC(=O)CC[C@H](N)C(=O)O .
0.00161

----------
reported_conditions: in ethanol, 288.15 K
measured_quantity: solubility (mole fraction)
Answer as a number with no unit attached.

Recall and state the measured solubility (mole fraction) for COC(=O)CC[C@H](N)C(=O)O .
0.000147

----------
reported_conditions: in water, 283.15 K
measured_quantity: solubility (mole fraction)
Answer as a number with no unit attached.

Recall and state the measured solubility (mole fraction) for COC(=O)CC[C@H](N)C(=O)O .
0.0337

----------
reported_conditions: in n-propanol, 313.15 K
measured_quantity: solubility (mole fraction)
Answer as a number with no unit attached.

Recall and state the measured solubility (mole fraction) for COC(=O)CC[C@H](N)C(=O)O .
0.000246

----------
reported_conditions: in ethanol, 303.15 K
measured_quantity: solubility (mole fraction)
Answer as a number with no unit attached.

Recall and state the measured solubility (mole fraction) for COC(=O)CC[C@H](N)C(=O)O .
0.000245

----------
reported_conditions: in n-propanol, 293.15 K
measured_quantity: solubility (mole fraction)
Answer as a number with no unit attached.

Recall and state the measured solubility (mole fraction) for COC(=O)CC[C@H](N)C(=O)O .
7.7e-05

----------
reported_conditions: in methanol, 318.15 K
measured_quantity: solubility (mole fraction)
Answer as a number with no unit attached.

Recall and state the measured solubility (mole fraction) for COC(=O)CC[C@H](N)C(=O)O .
0.0017
